Target: hROMK (hKir1.1) (Homo sapiens, UniProt P48048)
Sequence (P48048 1-391): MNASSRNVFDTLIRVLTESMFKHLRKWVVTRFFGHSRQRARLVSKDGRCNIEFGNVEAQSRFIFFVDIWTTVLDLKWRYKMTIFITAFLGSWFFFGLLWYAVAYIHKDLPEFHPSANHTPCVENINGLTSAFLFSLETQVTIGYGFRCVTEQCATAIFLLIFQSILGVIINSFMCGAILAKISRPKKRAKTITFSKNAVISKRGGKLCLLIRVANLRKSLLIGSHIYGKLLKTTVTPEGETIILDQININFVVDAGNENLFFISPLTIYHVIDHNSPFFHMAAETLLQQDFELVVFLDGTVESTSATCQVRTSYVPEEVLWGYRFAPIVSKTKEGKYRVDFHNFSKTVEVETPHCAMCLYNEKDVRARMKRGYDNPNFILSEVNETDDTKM
Test: Thallium Flux Assay (ROMK channel functional thallium flux, FLIPR-Tetra)
Conditions: HEK293 cells stably expressing hROMK (hKir1.1); 30 min compound incubation
Procedure: The following Thallium Flux Assay was performed on each of the final product compounds in the Examples. Cell Culture Conditions—HEK293 cells stably expressing hROMK (hKir1.1) were grown at 37° C. in a 10% CO2 humidified incubator in complete growth media: Dulbecco's Modified Eagle Medium supplemented with non-essential amino acids, Penicillin/Streptomycin/Glutamine, G418 and FBS. […] At FLIPR-Tetra 384: Add stimulant (Thallium/Potassium) solution to microplate and monitor fluorescence. […]
The label is TRUE for IC50 below 30 nM and FALSE for IC50 equal to or exceeding 30 nM.

- COMPOUND: "C[C@H]1CC2(CCN(C[C@H](O)c3ccc(-n4cnnn4)nc3)CC2)C(=O)N1C1=CC(=O)OC1"
  GROUP_LABEL: "TRUE"
- COMPOUND: "CC1=C(N2CC(O)C3(CC4CCC(C3)N4C[C@H](O)c3ccc(-n4cnnn4)nc3)C2=O)COC1=O (single isomer, unassigned) [Example 106]"
  GROUP_LABEL: "FALSE"
- COMPOUND: "COC1CN(C[C@H](O)c2cnc(-n3cnnn3)cn2)CCC12CCN(C1=C(C)C(=O)OC1)C2=O (single isomer, unassigned) [Example 178]"
  GROUP_LABEL: "FALSE"
- COMPOUND: "CC1CC2(CCN(C(C)(C)C(O)c3cnc(-n4cnnn4)cn3)CC2)C(=O)N1C1=CC(=O)OC1 (single isomer, unassigned) [Example 301]"
  GROUP_LABEL: "TRUE"
- COMPOUND: "CC1=C(N2C(=O)C3(CC2C)CC2CCC(C3)N2C[C@H](O)c2ccc(-n3cnnn3)nc2)COC1=O (single isomer, unassigned) [Example 135]"
  GROUP_LABEL: "FALSE"
- COMPOUND: "COC1CN(C2=C(C)C(=O)OC2)C(=O)C12CCN(C[C@H](O)c1ccc(-n3cnnn3)nc1)CC2 (single isomer, unassigned) [Example 114]"
  GROUP_LABEL: "FALSE"
- COMPOUND: "CC1CC2(CC3CCC(C2)N3C[C@@H](O)c2ccc(-n3cnnn3)nc2)C(=O)N1C1=CC(=O)OC1 (single isomer, unassigned) [Example 101]"
  GROUP_LABEL: "TRUE"
- COMPOUND: "CC1=C(N2C=CC3(CCN(CCc4ncc(-n5cnnn5)nc4C)CC3)C2=O)COC1=O"
  GROUP_LABEL: "TRUE"

====

Target: hROMK (hKir1.1) (Homo sapiens)
Construct: expressed in transfected cells
Assay: Thallium Flux Assay (ROMK channel functional thallium flux, FLIPR-Tetra)
Format: cell-based
Conditions: HEK293 cells stably expressing hROMK (hKir1.1); 30 min compound incubation
pIC50: −log10 of the molar value.
PROPERTY_LABEL: pIC50

- COMPOUND: "O=C1C=C(N2C(=O)C3(CCN(C[C@H](O)c4ccc(-n5cnnn5)nn4)CC3)CC2C2CC2)CO1 (mixture of isomers) [Example 211]"
  TARGET_SYSTEM: "hROMK (hKir1.1) (Homo sapiens)"
  PROPERTY_LABEL: "pIC50"
  EXPERIMENTAL_RESULT: 7.40
- COMPOUND: "CC1=C(N2CCC3(CCN(C[C@H](O)c4ncc(-n5cnnn5)cn4)CC3)C2=O)COC1=O [Example 40]"
  TARGET_SYSTEM: "hROMK (hKir1.1) (Homo sapiens)"
  PROPERTY_LABEL: "pIC50"
  EXPERIMENTAL_RESULT: 6.70
- COMPOUND: "CC1=C(N2C=CC3(CCN(CCc4cnc(-n5cnnn5)cn4)CC3)C2=O)COC1=O [Example 251]"
  TARGET_SYSTEM: "hROMK (hKir1.1) (Homo sapiens)"
  PROPERTY_LABEL: "pIC50"
  EXPERIMENTAL_RESULT: 7.30
- COMPOUND: "CC1=C(N2CCC3(CCN(C[C@H](O)c4cc(-n5cnnn5)ccn4)CC3)C2=O)COC1=O [Example 72]"
  TARGET_SYSTEM: "hROMK (hKir1.1) (Homo sapiens)"
  PROPERTY_LABEL: "pIC50"
  EXPERIMENTAL_RESULT: 7.40
- COMPOUND: "CC1=C(N2C(=O)C3(CCN(C[C@H](O)c4ccc(-n5cnnn5)cc4F)CC3)CC2C)COC1=O (single isomer, unassigned) [Example 141]"
  TARGET_SYSTEM: "hROMK (hKir1.1) (Homo sapiens)"
  PROPERTY_LABEL: "pIC50"
  EXPERIMENTAL_RESULT: 7.52
- COMPOUND: "CC1=C(N2CCC3(CCN(C[C@H](O)c4c(F)cc(-n5cnnn5)cc4F)CC3)C2=O)COC1=O [Example 76]"
  TARGET_SYSTEM: "hROMK (hKir1.1) (Homo sapiens)"
  PROPERTY_LABEL: "pIC50"
  EXPERIMENTAL_RESULT: 7.70
- COMPOUND: "CC1CC2(CC3CCC(C2)N3C[C@H](O)c2ccc(-n3cnnn3)nc2)C(=O)N1C1=CC(=O)OC1 (single isomer, unassigned) [Example 100]"
  TARGET_SYSTEM: "hROMK (hKir1.1) (Homo sapiens)"
  PROPERTY_LABEL: "pIC50"
  EXPERIMENTAL_RESULT: 8.00
- COMPOUND: "CC1=C(N2CCC3(CCN(C[C@H](O)c4cnc(-n5cnnn5)cn4)CC3)C2=O)COC1=O [Example 24]"
  TARGET_SYSTEM: "hROMK (hKir1.1) (Homo sapiens)"
  PROPERTY_LABEL: "pIC50"
  EXPERIMENTAL_RESULT: 7.70
- COMPOUND: "COCC1=C(N2CCC3(CCN(C[C@H](O)c4ccc(-n5cnnn5)nc4)CC3)C2=O)COC1=O [Example 182]"
  TARGET_SYSTEM: "hROMK (hKir1.1) (Homo sapiens)"
  PROPERTY_LABEL: "pIC50"
  EXPERIMENTAL_RESULT: 7.30
- COMPOUND: "CC1=C(N2CCC3(CCN([C@H](C)Cc4ccc(-n5cnnn5)nn4)CC3)C2=O)COC1=O (single isomer, unassigned) [Example 294]"
  TARGET_SYSTEM: "hROMK (hKir1.1) (Homo sapiens)"
  PROPERTY_LABEL: "pIC50"
  EXPERIMENTAL_RESULT: 8.40
- COMPOUND: "COCC1=C(N2CCC3(CCN(C[C@H](O)c4cnc(-n5cnnn5)cn4)CC3)C2=O)COC1=O [Example 200]"
  TARGET_SYSTEM: "hROMK (hKir1.1) (Homo sapiens)"
  PROPERTY_LABEL: "pIC50"
  EXPERIMENTAL_RESULT: 7.10
- COMPOUND: "CCc1nc(-n2cnnn2)cnc1CCN1CCC2(CC1)C[C@H](C)N(C1=CC(=O)OC1)C2=O [Example 271]"
  TARGET_SYSTEM: "hROMK (hKir1.1) (Homo sapiens)"
  PROPERTY_LABEL: "pIC50"
  EXPERIMENTAL_RESULT: 8.30
- COMPOUND: "CO[C@H](CN1CCC2(CC1)C[C@@H](C)N(C1=CC(=O)OC1)C2=O)c1cnc(-n2cnnn2)cn1 (single isomer, unassigned) [Example 286]"
  TARGET_SYSTEM: "hROMK (hKir1.1) (Homo sapiens)"
  PROPERTY_LABEL: "pIC50"
  EXPERIMENTAL_RESULT: 7.22
- COMPOUND: "CC1=C(N2CCC3(CC4CCC(C3)N4C[C@@H](O)c3nnc(-n4cnnn4)c(C)c3C)C2=O)COC1=O (stereo partly shown) [Example 51]"
  TARGET_SYSTEM: "hROMK (hKir1.1) (Homo sapiens)"
  PROPERTY_LABEL: "pIC50"
  EXPERIMENTAL_RESULT: 7.52
- COMPOUND: "CC1=C(N2C(=O)C3(CCN(C[C@H](O)c4ncc(-n5cnnn5)cc4C)CC3)CC2C)COC1=O (single isomer, unassigned) [Example 137]"
  TARGET_SYSTEM: "hROMK (hKir1.1) (Homo sapiens)"
  PROPERTY_LABEL: "pIC50"
  EXPERIMENTAL_RESULT: 7.10
- COMPOUND: "CC1=C(N2CCC3(CCN(C[C@@H](O)c4ccc(-n5cnnn5)cc4C)CC3)C2=O)COC1=O [Example 39]"
  TARGET_SYSTEM: "hROMK (hKir1.1) (Homo sapiens)"
  PROPERTY_LABEL: "pIC50"
  EXPERIMENTAL_RESULT: 8.00
- COMPOUND: "CC1=C(N2CCC3(CCN(C[C@H](O)c4cnc(-n5cnnn5)c(F)c4)CC3)C2=O)COC1=O [Example 26]"
  TARGET_SYSTEM: "hROMK (hKir1.1) (Homo sapiens)"
  PROPERTY_LABEL: "pIC50"
  EXPERIMENTAL_RESULT: 7.40
- COMPOUND: "Cc1cc([C@H](O)CN2CCC3(CC2)CCN(C2=CC(=O)OC2)C3=O)ncc1-n1cnnn1 [Example 6]"
  TARGET_SYSTEM: "hROMK (hKir1.1) (Homo sapiens)"
  PROPERTY_LABEL: "pIC50"
  EXPERIMENTAL_RESULT: 7.30
- COMPOUND: "CC1=C(N2CCC3(CCN(C[C@@H](O)c4ccc(-n5cnnn5)cc4)CC3)C2=O)COC1=O [Example 35]"
  TARGET_SYSTEM: "hROMK (hKir1.1) (Homo sapiens)"
  PROPERTY_LABEL: "pIC50"
  EXPERIMENTAL_RESULT: 8.00
- COMPOUND: "CC1OC(=O)C=C1N1CCC2(CCN(C[C@H](O)c3ccc(-n4cnnn4)nc3)CC2)C1=O (mixture of isomers) [Example 226]"
  TARGET_SYSTEM: "hROMK (hKir1.1) (Homo sapiens)"
  PROPERTY_LABEL: "pIC50"
  EXPERIMENTAL_RESULT: 6.48
- COMPOUND: "Cc1nc(-n2cnnn2)ccc1[C@@H](O)CN1C2CCC1CC1(CCN(C3=CC(=O)OC3)C1=O)C2 (stereo partly shown) [Example 43]"
  TARGET_SYSTEM: "hROMK (hKir1.1) (Homo sapiens)"
  PROPERTY_LABEL: "pIC50"
  EXPERIMENTAL_RESULT: 8.00
- COMPOUND: "CC1CC2(CC3CCC(C2)N3C[C@@H](O)c2cnc(-n3cnnn3)cn2)C(=O)N1C1=CC(=O)OC1 (single isomer, unassigned) [Example 92]"
  TARGET_SYSTEM: "hROMK (hKir1.1) (Homo sapiens)"
  PROPERTY_LABEL: "pIC50"
  EXPERIMENTAL_RESULT: 7.70
- COMPOUND: "COC1CN(C[C@@H](O)c2cnc(-n3cnnn3)cn2)CCC12CCN(C1=C(C)C(=O)OC1)C2=O (single isomer, unassigned) [Example 173]"
  TARGET_SYSTEM: "hROMK (hKir1.1) (Homo sapiens)"
  PROPERTY_LABEL: "pIC50"
  EXPERIMENTAL_RESULT: 6.11
- COMPOUND: "CC1=C(N2CCC3(CCN(C[C@H](O)c4ccc(-n5cnnn5)cc4)CC3)C2=O)COC1=O [Example 34]"
  TARGET_SYSTEM: "hROMK (hKir1.1) (Homo sapiens)"
  PROPERTY_LABEL: "pIC50"
  EXPERIMENTAL_RESULT: 8.00
- COMPOUND: "CC1=C(N2CCC3(CCN(CCc4ncc(-n5cnnn5)nc4C)CC3)C2=O)COC1=O [Example 252]"
  TARGET_SYSTEM: "hROMK (hKir1.1) (Homo sapiens)"
  PROPERTY_LABEL: "pIC50"
  EXPERIMENTAL_RESULT: 8.00
- COMPOUND: "Cc1cc(-n2cnnn2)ccc1[C@@H](O)CN1CCC2(CC1)CCN(C1=CC(=O)OC1)C2=O [Example 11]"
  TARGET_SYSTEM: "hROMK (hKir1.1) (Homo sapiens)"
  PROPERTY_LABEL: "pIC50"
  EXPERIMENTAL_RESULT: 7.70
- COMPOUND: "Cc1nc(-n2cnnn2)cnc1C(O)CN1CCC2(CC1)C[C@H](C)N(C1=CC(=O)OC1)C2=O (mixture of isomers) [Example 165]"
  TARGET_SYSTEM: "hROMK (hKir1.1) (Homo sapiens)"
  PROPERTY_LABEL: "pIC50"
  EXPERIMENTAL_RESULT: 8.00
- COMPOUND: "Cc1nc(-n2cnnn2)cnc1CCN1CCC2(CC1)C[C@H](C)N(C1=CC(=O)OC1)C2=O [Example 261]"
  TARGET_SYSTEM: "hROMK (hKir1.1) (Homo sapiens)"
  PROPERTY_LABEL: "pIC50"
  EXPERIMENTAL_RESULT: 8.52
